# assay_system: TrkA(h) (Homo sapiens)
# Construct: purchased Millipore (KinaseProfiler service)
# Sequence (P04629 33-796): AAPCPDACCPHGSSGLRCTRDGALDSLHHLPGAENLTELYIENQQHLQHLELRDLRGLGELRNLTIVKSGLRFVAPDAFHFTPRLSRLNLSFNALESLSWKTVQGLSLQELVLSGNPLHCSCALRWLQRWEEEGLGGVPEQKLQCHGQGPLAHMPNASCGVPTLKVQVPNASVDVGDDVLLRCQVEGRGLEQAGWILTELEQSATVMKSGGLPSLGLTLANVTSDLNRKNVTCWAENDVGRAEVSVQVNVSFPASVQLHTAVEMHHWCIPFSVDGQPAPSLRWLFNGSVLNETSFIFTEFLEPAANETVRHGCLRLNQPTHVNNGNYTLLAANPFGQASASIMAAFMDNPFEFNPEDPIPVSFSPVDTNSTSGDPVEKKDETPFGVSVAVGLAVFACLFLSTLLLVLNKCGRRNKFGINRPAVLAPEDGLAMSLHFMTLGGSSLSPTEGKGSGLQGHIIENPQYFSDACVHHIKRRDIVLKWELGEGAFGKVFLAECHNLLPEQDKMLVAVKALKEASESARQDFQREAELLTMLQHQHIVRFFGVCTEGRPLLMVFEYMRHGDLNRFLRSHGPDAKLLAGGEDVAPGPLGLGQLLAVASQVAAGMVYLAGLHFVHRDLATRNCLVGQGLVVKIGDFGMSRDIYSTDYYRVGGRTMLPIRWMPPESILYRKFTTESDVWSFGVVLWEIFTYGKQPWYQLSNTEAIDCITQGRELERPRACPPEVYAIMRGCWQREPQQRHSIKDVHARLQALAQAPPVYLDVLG
# assay_comment: KinaseProfiler (Millipore) radiometric kinase inhibition assay
# Format: biochemical
# stated_conditions: compound concentration 1 μM
observable: inhibition at 1 µM (%)
Numbers only, in %.

compound | inhibition at 1 µM, %
Fc1ccc(Nc2cc(N3CCCC3c3ccc(F)cc3)ncn2)cc1 (stereo not shown) | 44

For each listed entry, give its inhibition at 1 µM.
1. Cc1cc(Nc2cc(N3CCCC3c3ccc(Cl)cc3)ncn2)n[nH]1 (stereo not shown)
2. Clc1ccccc1C1CCCN1c1cc(Nc2cc(C3CC3)[nH]n2)ncn1 (stereo not shown)

1: 95; 2: 97

For each listed entry, give its inhibition at 1 µM.
1. c1ccc(C2COCCN2c2cc(Nc3cc(C4CC4)[nH]n3)ncn2)cc1 (stereo not shown)
2. Fc1ccc(C2CCCN2c2cc(Nc3cc(C4CC4)[nH]n3)ncn2)cc1 (stereo not shown)
3. Fc1ccc(C2CCCN2c2cc(Nc3cc(C4CCC4)[nH]n3)ncn2)cc1 (stereo not shown)
4. Fc1ccc(C2CCCN2c2cc(Nc3cc(C4CC4)[nH]n3)ncn2)c(F)c1 (stereo not shown)
5. Fc1ccc(C2CCCN2c2ncnc(Nc3cc(C4CC4)[nH]n3)n2)c(F)c1 (stereo not shown)
6. CC(C)n1cc(Nc2cc(N3CCCC3c3ccc(F)cc3)ncn2)cn1 (stereo not shown)

[85, 103, 101, 105, 100, 0]

For each listed entry, give its inhibition at 1 µM.
1. Fc1ccc(C2CCCN2c2cc(Nc3cc(-c4ccco4)[nH]n3)ncn2)cc1 (stereo not shown)
2. Clc1ccccc1C1CCCN1c1cc(Nc2cc(C3CCCO3)[nH]n2)ncn1 (stereo not shown)
3. Clc1ccc(C2CCCN2c2ncnc(Nc3cc(C4CC4)[nH]n3)n2)cc1 (stereo not shown)
4. COc1ccc(C2CCCN2c2cc(Nc3cc(C4CC4)[nH]n3)ncn2)cc1 (stereo not shown)

1: 79; 2: 70; 3: 100; 4: 101

---

I'd be grateful if you could share measured inhibition at 1 µM for these entries.
# assay_system: TrkA(h) (Homo sapiens)
# Construct: purchased Millipore (KinaseProfiler service)
# assay_comment: KinaseProfiler (Millipore) radiometric kinase inhibition assay
# Format: biochemical
# stated_conditions: compound concentration 1 μM

Use these answered entries as a reference point.
compound | assay_system | inhibition at 1 µM
c1ccc(C2CCCCN2c2cc(Nc3cc(C4CC4)[nH]n3)ncn2)cc1 (centres unmarked) | TrkA(h) (Homo sapiens) | 99%
Cc1cccc(C2CCCN2c2cc(Nc3cc(C4CC4)[nH]n3)ncn2)c1 (centres unmarked) | TrkA(h) (Homo sapiens) | 97%
Fc1cccc(F)c1C1CCCN1c1cc(Nc2cc(C3CC3)[nH]n2)ncn1 (centres unmarked) | TrkA(h) (Homo sapiens) | 101%
Cc1ccc(C2CCCN2c2cc(Nc3cc(C4CC4)[nH]n3)ncn2)cc1 (centres unmarked) | TrkA(h) (Homo sapiens) | 100%
CN(C)c1ccc(C2CCCN2c2cc(Nc3cc(C4CC4)[nH]n3)ncn2)cc1 (centres unmarked) | TrkA(h) (Homo sapiens) | 102%

For each listed entry, give its inhibition at 1 µM.
1. COc1ccccc1C1CCCN1c1cc(Nc2cc(C3CC3)[nH]n2)ncn1 (centres unmarked)
2. Fc1ccc(C2CCCN2c2ncnc(Nc3cc(C4CC4)[nH]n3)n2)cc1 (centres unmarked)
3. Fc1ccc(C2CCN2c2cc(Nc3cc(C4CC4)[nH]n3)ncn2)cc1 (centres unmarked)

["101%", "100%", "105%"]

For each listed entry, give its inhibition at 1 µM.
1. C/C=C/c1cc(Nc2cc(N3CCCC3c3ccc(F)cc3)ncn2)n[nH]1 (centres unmarked)
2. Clc1ccc(C2CCCN2c2cc(Nc3cc(C4CC4)[nH]n3)ncn2)cc1 (centres unmarked)
3. Fc1ccc(F)c(C2CCCN2c2cc(Nc3cc(C4CC4)[nH]n3)ncn2)c1 (centres unmarked)

1. 99%
2. 105%
3. 103%
